Target: T1, BCMA on cells (293T cells transfected with BCMA; H929, MM.1S and U266 cell lines expressing BCMA) (human, UniProt Q02223 1-184)
T1 construct: H929, MM.1S and U266 carry the native protein; also called B-cell Maturation Antigen; TNFRSF17
T1 sequence: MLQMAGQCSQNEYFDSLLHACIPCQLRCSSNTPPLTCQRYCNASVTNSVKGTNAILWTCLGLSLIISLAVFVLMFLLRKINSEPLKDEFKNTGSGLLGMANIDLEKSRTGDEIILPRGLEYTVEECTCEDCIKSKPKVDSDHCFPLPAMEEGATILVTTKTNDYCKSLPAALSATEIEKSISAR
Assay: flow cytometry, 293T cells transfected with BCMA, above parental 293T background; further: test concentration or dose not given here
quantity_kind: Positive (%)
Give the value; after it, write the unit.

QUERY: I am curious: what Positive (%) value has been reported for SCT-Aa05(h/h) (antibody, V domains shown, Full IgG format, chimeric: human IgG1 heavy chain constant region, human kappa light chain constant region) VH: EVKLLQSGGGLVQPGGSLKLSCAASGIDFSRYWMSWVRRAPGKGLEWIGEINPDSSTINYAPSLKDKFIISRDNAKNTLYLQMSKVRSEDTGLYYCASLYYDYEREYGMDYWGQGTSVTVSS VL: DIVMTQSQKFMSTSVGDRVSVTCKASQNVGTNVAWYQQKPGQSPKALIYSASYRFSGVPDRFTGSGSGTDFTLTISNVQSEDLAEYFCQQYNSYPYTFGGGTKLEIK ?
RESULT: 76.3%

QUERY: I am curious: what Positive (%) value has been reported for SCT-Aa17(h/h) (antibody, V domains shown, Full IgG format, chimeric: human IgG1 heavy chain constant region, human kappa light chain constant region) VH: EVQLQQSGPELVKPGASVKMSCKASGYTFTSYVMDWVKQKPGQGLEWIGYINPYNDGTKYNEKFKGKATLTSDKSSSTVYMELSSLTSEDSAVYHCARSDYDYGYAMDYWGQGTSVTVSS VL: DIQMTQSPASLSLSVGETVTITCRASENIYSNLAWYQQKQGNSPQLLVYSATHLADGVPSRFSGSGSGTQYSLKINSLQSEDFGCYYCQHFWGPPWTFGGGTKLEIK ?
RESULT: 43%
